Data provenance is paper PMC7826789.

tested on: MEK1; construct: gene MAP2K1; settings: Compound Concentration (nM):1000;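 also: KINOMEscan scanMAX binding as percent activity remaining versus control; lower means stronger binding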
readout-kind: Percent Control (%)
The answer is to be given in %; state only the numeric part.

Example results:
Inquiry: For COc1cccc(-c2c[nH]c3c(N/N=C/c4ccncc4)ncnc23)c1 [GW814408X] , write its Percent Control.
Reply text: 95

Inquiry: For Cl.c1ccc(Cc2nc3ccc(Nc4ncnc5ccccc45)cc3[nH]2)cc1 [GR269666A] , write its Percent Control.
Reply text: 100

Inquiry: For COc1cccc(-n2ncc3c(N/N=C/c4ccncc4)ncnc32)c1 [GW784752X] , write its Percent Control.
Reply text: 98

Inquiry: For CN(C)CCNC(=O)Nc1ccc(N(C)c2ccnc(Nc3ccc(CS(C)(=O)=O)cc3)n2)cc1.Cl [GW830900A] , write its Percent Control.
Reply text: 86

Inquiry: For COc1ccccc1-c1cc(/C=C2\C(=O)Nc3ncc(Br)cc32)cc(Br)c1O [GW442130X] , write its Percent Control.
Reply text: 74

New cases:
Inquiry: For Nc1ncnc2occ(-c3ccc(NC(=O)Nc4cc(C(F)(F)F)ccc4F)cc3)c12 [GW770249X] , write its Percent Control.
Reply text: 98

Inquiry: For COc1ccc(COc2ccc(Cc3cnc(N)nc3N)cc2OC)cc1 [GW632580X] , write its Percent Control.
Reply text: 90

Inquiry: For COc1cc2ncnc(Nc3ccc4c(cnn4Cc4ccccc4)c3)c2cc1OC.Cl [GW282449A] , write its Percent Control.
Reply text: 37

Inquiry: For NS(=O)(=O)c1ccc(Nc2ncc(-c3ccccc3)o2)cc1 [GW572399X] , write its Percent Control.
Reply text: 100

Inquiry: For COC(=O)Nc1nc2ccc(Oc3ccc(NC(=O)Nc4cc(C(F)(F)F)ccc4F)cc3)cc2s1.Cl [GW693917A] , write its Percent Control.
Reply text: 76

Inquiry: For CN1CCN(C(=O)c2ccc(NC(=O)Nc3ccc(N(C)c4ccnc(Nc5ccc(CS(C)(=O)=O)cc5)n4)cc3)cc2)CC1.Cl [GW830263A] , write its Percent Control.
Reply text: 33

Inquiry: For Cl.O=S1CCN(Cc2ccc(-c3ccc4ncnc(Nc5ccc(OCc6ccccc6)c(F)c5)c4c3)o2)CC1 [GW576924A] , write its Percent Control.
Reply text: 83

Inquiry: For Cc1cc(O)cc(C)c1/C=C/c1cncc(C(N)=O)c1 [GW435821X] , write its Percent Control.
Reply text: 81

Inquiry: For CCc1ccc(Oc2nccc(-c3c(-c4ccc(F)cc4)ncn3C3CCNCC3)n2)cc1 , write its Percent Control.
Reply text: 93

Inquiry: For Cl.O=C(Nc1ccc(Oc2ccc3[nH]c(NC(=O)c4ccccc4)nc3c2)cc1)Nc1cc(C(F)(F)F)ccc1F [GW709042A] , write its Percent Control.
Reply text: 80

Inquiry: For Cl.O=C(Nc1ccc(Oc2ccc3[nH]c(NC(=O)c4ccco4)nc3c2)cc1)Nc1cc(C(F)(F)F)ccc1F [GW683134A] , write its Percent Control.
Reply text: 96
